Experiment: Measurement test of plasma drug concentration after oral administration in rats
Type: in vivo, rat
Details: 10 mg/2 mL/kg oral, suspended in 0.5% methylcellulose, male SD rats
Each entry below lists one item and its recorded maximam plasma concentration value.
measured parameter: maximam plasma concentration (µM)

structure smiles: CC[C@@H]1CN(Cc2cc([C@H](CC(=O)O)c3ccc4c(nnn4C)c3C)cc3ccsc23)S(=O)(=O)c2cc(Cl)cnc2O1
observed result: 0.009
//
structure smiles: CC[C@@H]1CN(Cc2cc([C@@H](CC(=O)O)c3ccc4c(nnn4C)c3C)cc3ccsc23)S(=O)(=O)c2cc(Cl)cnc2O1
observed result: 0.005
//
structure smiles: CC[C@@H]1CN(Cc2cc([C@H](CC(=O)O)c3ccc4c(nnn4C)c3C)cc3c2CCC3)S(=O)(=O)c2cc(Cl)cnc2O1
observed result: 0.029
//
structure smiles: CC[C@@H]1CN(Cc2cc([C@@H](CC(=O)O)c3ccc4c(nnn4C)c3C)cc3c2CCC3)S(=O)(=O)c2cc(Cl)cnc2O1
observed result: 0.006

Each recorded value in this set is attributed to patent US20250282724A1.
